Listing: protein stability index of selected variants
B1: MCOLN1 (parent)
chain: EEEDLRRRLKYFFMSPCDKFRAKG

- Variants of: B1
- METHOD SUMMARY: protein stability index of a GFP-peptide fusion (GPS, HEK-293T) (PSI 1-6); higher = more stable;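 note: lentivirally expressed fusions sorted by FACS into six bins by GFP to DsRed ratio, PSI derived from sequencing read proportions per bin multiplied by bin number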
- SETTINGS: c terminus: a fixed tail appended
Number only, please.

K19S
2.4
M14H
2.59
R8V
2.62
P16R
2.26
P16A
2.12

GET /value?item= F20Y &field=protein stability index returns 2.28

variant R21P , protein stability index observed: 3.09

// protein stability index lookup, variant = P16D , result: 3.12
